Sourced from ChEMBL document CHEMBL3244308

test system: L1210; test: Antitumor activity against mouse L1210 cells subcutaneously xenografted in ip dosed C3H/DBA2 F1 hybrid mouse assessed as increase in host lifespan administered daily for 5 days starting 24 hrs post-tumor implantation; type: functional
parameterMeasured: ILS

Exam item: # get_value(readout='ILS', item= CCCCCCCCC(=O)N(c1ccc(Nc2c3ccccc3nc3cc([N+](=O)[O-])ccc23)cc1)S(C)(=O)=O )
Marked response: 61%

Exam item: # get_value(readout='ILS', item= CCCCC(=O)N(c1ccc(Nc2c3ccccc3nc3cc([N+](=O)[O-])ccc23)cc1)S(C)(=O)=O )
Marked response: 57%

Exam item: # get_value(readout='ILS', item= CS(=O)(=O)Nc1ccc(Nc2c3ccccc3nc3cc([N+](=O)[O-])ccc23)cc1 )
Marked response: 43%

Exam item: # get_value(readout='ILS', item= CCC(=O)N(c1ccc(Nc2c3ccccc3nc3cc([N+](=O)[O-])ccc23)cc1)S(C)(=O)=O )
Marked response: 57%

Exam item: # get_value(readout='ILS', item= CC(=O)N(c1ccc(Nc2c3ccccc3nc3ccccc23)cc1)S(C)(=O)=O.Cl )
Marked response: 68%

Exam item: # get_value(readout='ILS', item= CCC(=O)N(c1ccc(Nc2c3ccc([N+](=O)[O-])cc3nc3c(C)cccc23)cc1)S(C)(=O)=O )
Marked response: 27%

Exam item: # get_value(readout='ILS', item= CCCCCCCC(=O)N(c1ccc(Nc2c3ccccc3nc3cc([N+](=O)[O-])ccc23)cc1)S(C)(=O)=O )
Marked response: 47%

Exam item: # get_value(readout='ILS', item= COc1cc(N(C(C)=O)S(C)(=O)=O)ccc1Nc1c2ccccc2nc2ccccc12.Cl )
Marked response: 33%

Exam item: # get_value(readout='ILS', item= Br.CCCCCCC(=O)N(c1ccc(Nc2c3ccccc3nc3ccccc23)cc1)S(C)(=O)=O )
Marked response: 27%

Exam item: # get_value(readout='ILS', item= CC(=O)Nc1ccc2c(Nc3ccc(N(C(=O)C(C)C)S(C)(=O)=O)cc3)c3ccccc3nc2c1.Cl )
Marked response: 57%

Exam item: # get_value(readout='ILS', item= COc1cc(NS(C)(=O)=O)ccc1Nc1c2ccccc2nc2cc(N=[N+]=[N-])ccc12.Cl )
Marked response: 47%

Exam item: # get_value(readout='ILS', item= Br.CCCCCCCCCCCC(=O)N(c1ccc(Nc2c3ccccc3nc3cc(NC(C)=O)ccc23)cc1)S(C)(=O)=O )
Marked response: 41%

Exam item: # get_value(readout='ILS', item= COc1cc(NS(C)(=O)=O)ccc1Nc1c2ccccc2nc2ccccc12 )
Marked response: 27%

Exam item: # get_value(readout='ILS', item= CCCC(=O)N(c1ccc(Nc2c3ccccc3nc3cc(NC(C)=O)ccc23)cc1)S(C)(=O)=O.Cl )
Marked response: 62%

Exam item: # get_value(readout='ILS', item= CC(=O)N(c1ccc(Nc2c3ccc([N+](=O)[O-])cc3nc3c(C)cccc23)cc1)S(C)(=O)=O )
Marked response: 188%

Exam item: # get_value(readout='ILS', item= Br.CCCCCCCC(=O)N(c1ccc(Nc2c3ccccc3nc3cc(NC(C)=O)ccc23)cc1)S(C)(=O)=O )
Marked response: 45%

Exam item: # get_value(readout='ILS', item= CC(=O)N(c1ccc(Nc2c3ccccc3nc3cc([N+](=O)[O-])ccc23)cc1)S(C)(=O)=O )
Marked response: 61%

Exam item: # get_value(readout='ILS', item= COc1cc(NS(C)(=O)=O)ccc1Nc1c2ccccc2nc2cc(/N=N/N(C)C)ccc12.Cl )
Marked response: 34%

Exam item: # get_value(readout='ILS', item= CCC(=O)N(c1ccc(Nc2c3ccccc3nc3cc(NC(C)=O)ccc23)cc1)S(C)(=O)=O.Cl )
Marked response: 88%

Exam item: # get_value(readout='ILS', item= COc1cc(NS(C)(=O)=O)ccc1Nc1c2ccccc2nc2c(C)cccc12 )
Marked response: 47%

Exam item: # get_value(readout='ILS', item= CCCCC(=O)N(c1ccc(Nc2c3ccccc3nc3cc(NC(C)=O)ccc23)cc1)S(C)(=O)=O.Cl )
Marked response: 63%

Exam item: # get_value(readout='ILS', item= Br.CCCCCCCCC(=O)N(c1ccc(Nc2c3ccccc3nc3cc(NC(C)=O)ccc23)cc1)S(C)(=O)=O )
Marked response: 83%

Exam item: # get_value(readout='ILS', item= Br.CCCCCCCCCC(=O)N(c1ccc(Nc2c3ccccc3nc3cc(NC(C)=O)ccc23)cc1)S(C)(=O)=O )
Marked response: 65%

Exam item: # get_value(readout='ILS', item= CC(=O)Nc1ccc2c(Nc3ccc(N(C(C)=O)S(C)(=O)=O)cc3)c3ccccc3nc2c1.Cl )
Marked response: 43%

Exam item: # get_value(readout='ILS', item= CCCN(C)/N=N/c1ccc2c(Nc3ccc(NS(C)(=O)=O)cc3)c3ccccc3nc2c1.CS(=O)(=O)O )
Marked response: 27%

Exam item: # get_value(readout='ILS', item= Cc1cccc2c(Nc3ccc(NS(C)(=O)=O)cc3)c3ccc([N+](=O)[O-])cc3nc12 )
Marked response: 98%

Exam item: # get_value(readout='ILS', item= Br.CCCCCCC(=O)N(c1ccc(Nc2c3ccccc3nc3cc(NC(C)=O)ccc23)cc1)S(C)(=O)=O )
Marked response: 47%

Exam item: # get_value(readout='ILS', item= CS(=O)(=O)Nc1ccc(Nc2c3ccccc3nc3cc(N=[N+]=[N-])ccc23)cc1.Cl )
Marked response: 64%

Exam item: # get_value(readout='ILS', item= CCCC(=O)N(c1ccc(Nc2c3ccc([N+](=O)[O-])cc3nc3c(C)cccc23)cc1)S(C)(=O)=O )
Marked response: 31%

Exam item: # get_value(readout='ILS', item= CS(=O)(=O)Nc1ccc(Nc2c3ccccc3nc3ccccc23)cc1 )
Marked response: 28%

Exam item: # get_value(readout='ILS', item= CC(=O)Nc1ccc2c(Nc3ccc(NS(C)(=O)=O)cc3)c3ccccc3nc2c1 )
Marked response: 33%

Exam item: # get_value(readout='ILS', item= CCN(CC)/N=N/c1ccc2c(Nc3ccc(NS(C)(=O)=O)cc3)c3ccccc3nc2c1.CS(=O)(=O)O )
Marked response: 28%

Exam item: # get_value(readout='ILS', item= CN(C)/N=N/c1ccc2c(Nc3ccc(NS(C)(=O)=O)cc3)c3ccccc3nc2c1.Cl )
Marked response: 38%

Exam item: # get_value(readout='ILS', item= CCCCCCCCCCCCCCCCCC(=O)N(c1ccc(Nc2c3ccccc3nc3cc(NC(C)=O)ccc23)cc1)S(C)(=O)=O )
Marked response: 39%

Exam item: # get_value(readout='ILS', item= CCCCC(=O)N(c1ccc(Nc2c3ccccc3nc3ccccc23)cc1)S(C)(=O)=O.Cl )
Marked response: 28%

====

experiment: Lipophilic-hydrophilic balance, Rm of the compound by reversed-phase partition chromatography; assay type: physicochemical
Each record's class is read off its Rm using these ranges: lo (below 0.2), med (0.2 to below 0.5), hi (0.5 or more)

Exam item: Lab note: sort CCCCCC(=O)N(c1ccc(Nc2c3ccccc3nc3ccccc23)cc1)S(C)(=O)=O.Cl into the matching Rm band.
Marked response: med

Exam item: Lab note: sort COc1cc(NS(C)(=O)=O)ccc1Nc1c2ccccc2nc2cc(N=[N+]=[N-])ccc12.Cl into the matching Rm band.
Marked response: lo

Exam item: Lab note: sort CN(C)/N=N/c1ccc2c(Nc3ccc(NS(C)(=O)=O)cc3)c3ccccc3nc2c1.Cl into the matching Rm band.
Marked response: med

Exam item: Lab note: sort CCCC(=O)N(c1ccc(Nc2c3ccccc3nc3ccccc23)cc1)S(C)(=O)=O.Cl into the matching Rm band.
Marked response: med

Exam item: Lab note: sort CC(=O)Nc1ccc2c(Nc3ccc(NS(C)(=O)=O)cc3)c3ccccc3nc2c1 into the matching Rm band.
Marked response: lo

Exam item: Lab note: sort CCCCCC(=O)N(c1ccc(Nc2c3ccccc3nc3c(C)cccc23)c(OC)c1)S(C)(=O)=O into the matching Rm band.
Marked response: hi

Exam item: Lab note: sort CCCCCCCC(=O)N(c1ccc(Nc2c3ccccc3nc3ccccc23)cc1)S(C)(=O)=O.Cl into the matching Rm band.
Marked response: hi

Exam item: Lab note: sort CS(=O)(=O)Nc1ccc(Nc2c3ccccc3nc3cc(N)ccc23)cc1 into the matching Rm band.
Marked response: lo

Exam item: Lab note: sort Br.CCCCCCC(=O)N(c1ccc(Nc2c3ccccc3nc3ccccc23)cc1)S(C)(=O)=O into the matching Rm band.
Marked response: hi

Exam item: Lab note: sort CCCCCCCCCCCCCCCCCC(=O)N(c1ccc(Nc2c3ccccc3nc3cc(NC(C)=O)ccc23)cc1)S(C)(=O)=O into the matching Rm band.
Marked response: hi

Exam item: Lab note: sort CCCCC(=O)N(c1ccc(Nc2c3ccccc3nc3ccccc23)cc1)S(C)(=O)=O.Cl into the matching Rm band.
Marked response: med

Exam item: Lab note: sort Br.CCCCCCCCCC(=O)N(c1ccc(Nc2c3ccccc3nc3cc(NC(C)=O)ccc23)cc1)S(C)(=O)=O into the matching Rm band.
Marked response: hi
